assay: in vitro; details: human, plasma
Measured Metric: fraction unbound

Requested field: fraction unbound. Item: CN[C@@H](C)C(=O)N[C@H](C(=O)N1C[C@H]2CCCCOc3ccc(cc3)C[C@@H](C(=O)O)NC(=O)[C@H](Cc3ccc4ccccc4c3)NC(=O)[C@@H]3C[C@@H](CN3C(=O)[C@@H](NC(=O)[C@H](C)NC)C(C)(C)C)n3cc(nn3)COc3ccc(cc3)C[C@@H](NS(=O)(=O)C3CC3)NC(=O)[C@H](Cc3ccc4ccccc4c3)NC(=O)[C@@H]1C2)C(C)(C)C
0.075
